Cited source: patent US10774074B2

- studySystem: human alpha2C receptors (Homo sapiens, UniProt P18825)
- Construct: host or cells: CHO cells, cotransfected with pCEP-Gα16
- methodSummary: Determination of alpha2C antagonistic activity in vitro (FLIPR calcium assay, CHO cells)
- Assay type: cell-based
- measurementSetup: Kb calculated with the Cheng-Prusoff equation from IC50; adrenaline as agonist; CHO cells, human alpha2C; read-out: Alpha 2C Adrenaline Kb
Where a name gives a salt, the structure may show the parent alone.
Rule: Kb below 100 nM gives Fulfilled, anything at or above gives Not fulfilled.

Before answering, review these 4 worked examples.
# molecule, cat
rows = [
    ("Cc1c(N2CC(C)(C)N(C)C2=O)c(N2CCN(C[C@H]3COc4ccccc4O3)CC2)nn1C", "Fulfilled"),
    ("Cc1c(N2C(=O)c3ccccc3C2=O)c(N2CCN(C[C@H]3COc4ccccc4O3)CC2)nn1C", "Fulfilled"),
    ("Cc1nc(N2CCN(C[C@H]3COc4ccccc4O3)CC2)c(N2C(=O)CC(C)(C)C2=O)s1 [Compound of example 32, hydrochloride]", "Fulfilled"),
    ("Cc1c(N2C(=O)CC(C)(C)C2=O)c(N2CCN(C[C@H]3COc4ccccc4O3)CC2)nn1C", "Fulfilled"),
]

IN: is_below(Kb, 100 nM) for "COc1cccc(-n2nc(C)cc2N2CCN(C[C@H]3COc4ccccc4O3)CC2)n1" ?
OUT: Fulfilled

IN: is_below(Kb, 100 nM) for "Cc1nc(C#N)c(N2CCN(C[C@H]3COc4ccccc4O3)CC2)o1" ?
OUT: Not fulfilled

IN: is_below(Kb, 100 nM) for "Cc1c(C(C)(C)O)c(N2CCN(C[C@H]3COc4ccccc4O3)CC2)nn1C" ?
OUT: Fulfilled

* * *

- studySystem: human alpha2C receptors (Homo sapiens, UniProt P18825)
- Construct: host or cells: CHO cells, cotransfected with pCEP-Gα16
- methodSummary: Determination of alpha2C antagonistic activity in vitro (FLIPR calcium assay, CHO cells)
- Format: cell-based
- measurementSetup: Kb calculated with the Cheng-Prusoff equation from IC50; adrenaline as agonist; CHO cells, human alpha2C; read-out: Alpha 2C Adrenaline Kb
Structures can show the parent of a compound that is named as a salt.
quantityKind: Kb (nM)
One number for each entry, in nM.

# compound, unitsText, Kb
rows = [
    ("Cc1c(N2CCOC2=O)c(N2CCN(C[C@H]3COc4ccccc4O3)CC2)nn1C [Compound of example 5]", "nM", 1),
    ("Cc1c(N2CCN(C)C2=O)c(N2CCN(C[C@H]3COc4ccccc4O3)CC2)nn1C [Compound of example 15]", "nM", 1.64),
    ("CNC(=O)c1nsnc1N1CCN(C[C@H]2COc3ccccc3O2)CC1 [Compound of example 29, hydrochloride]", "nM", 4210),
    ("c1ccc2c(c1)OC[C@H](CN1CCN(c3nsc4cccnc34)CC1)O2 [Compound of example 36, hydrochloride]", "nM", 135),
]

# input for lookup
IN: Can you look up Kb on human alpha2C receptors (Homo sapiens, UniProt P18825) for CC(=O)c1nsnc1N1CCN(C[C@H]2COc3ccccc3O2)CC1 [Compound of example 33] ?
OUT: 401

* * *

- studySystem: human alpha2C receptors (Homo sapiens)
- Construct: host or cells: CHO cells, cotransfected with pCEP-Gα16
- Sequence (P18825 1-462): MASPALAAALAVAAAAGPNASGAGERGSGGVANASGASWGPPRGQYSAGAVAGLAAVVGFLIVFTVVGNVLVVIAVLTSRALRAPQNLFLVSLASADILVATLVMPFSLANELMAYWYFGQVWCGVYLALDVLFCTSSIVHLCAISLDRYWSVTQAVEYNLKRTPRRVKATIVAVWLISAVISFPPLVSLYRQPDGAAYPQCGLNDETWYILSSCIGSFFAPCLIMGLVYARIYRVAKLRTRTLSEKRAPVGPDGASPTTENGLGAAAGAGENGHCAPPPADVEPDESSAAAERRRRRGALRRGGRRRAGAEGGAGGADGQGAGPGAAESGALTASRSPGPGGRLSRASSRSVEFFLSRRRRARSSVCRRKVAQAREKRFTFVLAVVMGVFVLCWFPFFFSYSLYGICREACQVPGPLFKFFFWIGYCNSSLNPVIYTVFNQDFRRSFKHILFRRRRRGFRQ
- methodSummary: Determination of alpha2C antagonistic activity in vitro (FLIPR calcium assay, CHO cells)
- Format: cell-based
- measurementSetup: Kb calculated with the Cheng-Prusoff equation from IC50; adrenaline as agonist; CHO cells, human alpha2C; read-out: Alpha 2C Adrenaline Kb
quantityKind: Kb

Use the examples below as a reference point.
# substanceSmiles, Kb
data = [
    ("Cc1c(N2CC(C)(C)NC2=O)c(N2CCN(C[C@H]3COc4ccccc4O3)CC2)nn1C", "< 100 pM"),
    ("c1ccc2c(c1)OC[C@H](CN1CCN(c3nsnc3Nc3ccncn3)CC1)O2", "< 100 pM"),
]

# input for lookup
IN: Given the entry "CC1(C)CCN(c2nsnc2N2CCN(C[C@H]3COc4ccccc4O3)CC2)C1=O" , report its measured Kb.
OUT: < 100 pM
